Each item that follows carries a reported protein stability index.
- METHOD_DESCRIPTION: protein stability index of a GFP-peptide fusion (GPS, HEK-293T) (PSI 1-6); higher = more stable;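 also: 24-mer peptide tiles fused after GFP, lentivirally expressed, FACS-sorted into six equal bins by GFP/DsRed ratio, decoded by Illumina sequencing, PSI is the read-weighted mean bin number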
- RUN_PARAMETERS: treatment: DMSO; c terminus: a fixed tail appended

PRIMARY_SEQUENCE: CCPTSREAAVEALELLGATYVDKK [FEM1A]
protein stability index: 4.28
//
PRIMARY_SEQUENCE: DNLKFSQEYESIDPGQQFTWEHSN [PTPRD]
protein stability index: 4.57
//
PRIMARY_SEQUENCE: KIKAIMALVAAILLLVIIILIVMK [VAMP4]
protein stability index: 2.47
//
PRIMARY_SEQUENCE: LTLDLPTAPLYKDEKEQLIIPQVP [USP39]
protein stability index: 3.91
//
PRIMARY_SEQUENCE: DIKDDIYDPTYKDKEGPSPKVEYV [SCD]
protein stability index: 4.92
//
PRIMARY_SEQUENCE: PKYQLFVPQLVTGRCATRAFHRKS [RNF180]
protein stability index: 2.14
//
PRIMARY_SEQUENCE: YLEVLETMDNKKGRRYEAVKWMVV [CLCN6]
protein stability index: 2.4
//
PRIMARY_SEQUENCE: HHCDDHLSLYQLSLERGTALFAQV [RSAD1]
protein stability index: 2.22
//
PRIMARY_SEQUENCE: DKNRCELLSFLLLMDYIGINLATM [EDNRA]
protein stability index: 2.77
//
PRIMARY_SEQUENCE: NLVARHPLFSEDVVLKLFLSFSGS [SNX8]
protein stability index: 2.7
//
PRIMARY_SEQUENCE: KVPESLVRSLRGEEPVPRERDRDP [LURAP1L]
protein stability index: 5.28
//
PRIMARY_SEQUENCE: LCRKCANDIFQAANPYWTSRGSSV [TRIM63]
protein stability index: 2.32
//
PRIMARY_SEQUENCE: QQQHVSCQVFPERLAQGNPQQGFF [ATP23]
protein stability index: 3.5
//
PRIMARY_SEQUENCE: DCQAGLNFADEDEAQAFRALVQEK [WAS]
protein stability index: 5.17
//
PRIMARY_SEQUENCE: QKRQQLSEDTLTIHGLPTEGYQAL [C22orf31]
protein stability index: 3.91
//
PRIMARY_SEQUENCE: RCACAASSDESPGSKCSPEDLATA [TTC32]
protein stability index: 3.83
//
PRIMARY_SEQUENCE: HVPTVWAIDQYRVCQEVLERSRDV [RHOBTB1]
protein stability index: 2.83
//
PRIMARY_SEQUENCE: GGLATGIAGGLAGMGGIQNEKETM [KRT18]
protein stability index: 4.95
//
PRIMARY_SEQUENCE: LLGEPLAGPELDEMLREVDLNGDG [CABP4]
protein stability index: 5.18
//
PRIMARY_SEQUENCE: NVINHFYCDLPQLFQLSCSSTQLN [OR3A1]
protein stability index: 3
//
PRIMARY_SEQUENCE: FARFCKSQESALGNTVPAVEPGTP [DNAAF3]
protein stability index: 3.63
//
PRIMARY_SEQUENCE: MINLRRLLLSHIHASSYISPEKEE [PRAME]
protein stability index: 2.41
//
PRIMARY_SEQUENCE: EERALLLGRMGKHEQALFIYVHIL [VPS39]
protein stability index: 2.96
//
PRIMARY_SEQUENCE: ATYRSLLEGQDAKMIGFPSSAGSV [KRT13]
protein stability index: 3.22
//
PRIMARY_SEQUENCE: STRWEVIAEDGTKEIESQGSIPGF [TAF7L]
protein stability index: 4.58
//
PRIMARY_SEQUENCE: RFGVRPKVTGYLISYSSMLGAVAG [MFSD9]
protein stability index: 2.58
//
PRIMARY_SEQUENCE: MVGGGQPCGPNMSEVSCKKRDDYL [DCTD]
protein stability index: 4.11
//
PRIMARY_SEQUENCE: TEFRKGAQSLPGPCAAAREGRLER [IRX6]
protein stability index: 4.53
//
PRIMARY_SEQUENCE: SILNSCEDPVPGMLFFLPPGQHLS [FBXO34]
protein stability index: 2.46
//
PRIMARY_SEQUENCE: NRPIETYQVHDYLRSKLCSLYEND [PPP2R2B]
protein stability index: 2.97
//
PRIMARY_SEQUENCE: MSTKESDFLCLLGVSYTFDNEDSE [MIA2]
protein stability index: 2.92
//
PRIMARY_SEQUENCE: LEDLESELDDPGQPVSLRRRKREV [ZNF24]
protein stability index: 5.38
//
PRIMARY_SEQUENCE: RFQAMEETHLRHMKALLGSYAHSV [FCHO1]
protein stability index: 2.38
//
PRIMARY_SEQUENCE: RQVRDKTLKRGYFQKSLVLISKLP [DENND6A]
protein stability index: 2.27
//
PRIMARY_SEQUENCE: QTLDKKLMSDLRRKRTAHERAKEL [INTS4]
protein stability index: 4.22
//
PRIMARY_SEQUENCE: RFEEPKGPPARQEDSKELRALRKM [CBY2]
protein stability index: 4.91
//
PRIMARY_SEQUENCE: FFTVEFGLCKQDGQLRVFGAGLLS [TPH1]
protein stability index: 2.73
//
PRIMARY_SEQUENCE: DFDEEYFSNTSELAKDFIRRLLVK [DAPK3]
protein stability index: 2.77
//
PRIMARY_SEQUENCE: PFETREPPPAYEPPAPAPLPPPSA [SCAMP3]
protein stability index: 4.99
//
PRIMARY_SEQUENCE: VGIFHLMQIAVPCAFLLLRLLVGL [TMEM175]
protein stability index: 2.81
//
PRIMARY_SEQUENCE: TNTGPAGSSASTSPAPLDTCPSSS [DYRK1B]
protein stability index: 5.24
//
PRIMARY_SEQUENCE: SQPLDREATSHYIIELLASDAGSP [PCDHGC5]
protein stability index: 3.33
//
PRIMARY_SEQUENCE: ACIAYIRLTQYMDGSGMPKTMQSE [CAMK2D]
protein stability index: 2.88
//
PRIMARY_SEQUENCE: RCSSMHFLVAEWNEPSINFYKRRG [SAT1]
protein stability index: 2.86
//
PRIMARY_SEQUENCE: YLQKIEEFAEMVEREEEDDALDSE [KCNG1]
protein stability index: 5
//
PRIMARY_SEQUENCE: IPPKEFHFRHPKRSVSLSMRKSGA [BNIP3L]
protein stability index: 3.37
//
PRIMARY_SEQUENCE: TQEPIFTFTASFSGKVFPFFAVWK [TRIM15]
protein stability index: 3.19
//
PRIMARY_SEQUENCE: WLRVLNPDLVKGPWTKEEDQKVIE [MYBL2]
protein stability index: 2.61
//
PRIMARY_SEQUENCE: TQRPAMVQTEDQYQFSYRAALEYL [PTPRD]
protein stability index: 2.91
//
PRIMARY_SEQUENCE: TAKNSRVVCGMFGFPGERTYNTKV [LOXL2]
protein stability index: 2.6
//
PRIMARY_SEQUENCE: VWDLNMEARPIETYQVHDYLRSKL [PPP2R2C]
protein stability index: 2.42
//
PRIMARY_SEQUENCE: KRKRVDVEESEASSSVSISHSASA [LMNB1]
protein stability index: 5.29
//
PRIMARY_SEQUENCE: LRLPMLNTEVVQVAAGRTQKAGVT [NEK8]
protein stability index: 3.1
